- system name: T1, G9a and GLP (Homo sapiens, UniProt Q96KQ7+Q9H9B1)
- T1 sequence (Q96KQ7 2-1210 limits assumed): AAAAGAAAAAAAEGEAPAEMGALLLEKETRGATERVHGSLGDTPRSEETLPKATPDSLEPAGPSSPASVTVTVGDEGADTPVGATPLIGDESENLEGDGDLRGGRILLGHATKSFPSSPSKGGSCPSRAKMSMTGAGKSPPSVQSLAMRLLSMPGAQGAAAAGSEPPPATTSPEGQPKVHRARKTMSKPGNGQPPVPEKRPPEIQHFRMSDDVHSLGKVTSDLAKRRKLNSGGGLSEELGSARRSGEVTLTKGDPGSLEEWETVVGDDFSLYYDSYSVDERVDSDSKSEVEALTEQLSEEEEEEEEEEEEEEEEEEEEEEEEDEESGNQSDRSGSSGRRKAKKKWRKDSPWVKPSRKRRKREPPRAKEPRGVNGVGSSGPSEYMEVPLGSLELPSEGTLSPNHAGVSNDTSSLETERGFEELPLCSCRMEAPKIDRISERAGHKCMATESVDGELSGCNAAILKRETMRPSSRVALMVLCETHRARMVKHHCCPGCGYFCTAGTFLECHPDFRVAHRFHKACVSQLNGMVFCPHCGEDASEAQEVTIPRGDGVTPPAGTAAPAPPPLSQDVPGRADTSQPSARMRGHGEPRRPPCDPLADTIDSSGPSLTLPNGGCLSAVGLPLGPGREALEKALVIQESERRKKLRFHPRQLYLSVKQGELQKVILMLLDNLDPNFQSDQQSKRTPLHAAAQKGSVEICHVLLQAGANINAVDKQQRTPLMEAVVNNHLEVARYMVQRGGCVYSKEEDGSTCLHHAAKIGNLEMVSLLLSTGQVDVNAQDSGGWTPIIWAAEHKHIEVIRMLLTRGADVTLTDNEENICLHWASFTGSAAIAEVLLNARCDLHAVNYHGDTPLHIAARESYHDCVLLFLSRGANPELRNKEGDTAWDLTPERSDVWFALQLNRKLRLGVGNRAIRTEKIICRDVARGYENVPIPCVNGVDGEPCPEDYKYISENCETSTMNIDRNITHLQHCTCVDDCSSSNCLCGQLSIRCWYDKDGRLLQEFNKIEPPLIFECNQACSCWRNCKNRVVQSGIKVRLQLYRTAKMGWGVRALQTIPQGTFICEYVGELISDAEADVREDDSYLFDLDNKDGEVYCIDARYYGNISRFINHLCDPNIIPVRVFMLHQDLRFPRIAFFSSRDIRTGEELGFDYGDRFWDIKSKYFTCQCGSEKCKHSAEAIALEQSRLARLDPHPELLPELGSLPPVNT
- T1 sequence (Q9H9B1 2-1298 limits assumed): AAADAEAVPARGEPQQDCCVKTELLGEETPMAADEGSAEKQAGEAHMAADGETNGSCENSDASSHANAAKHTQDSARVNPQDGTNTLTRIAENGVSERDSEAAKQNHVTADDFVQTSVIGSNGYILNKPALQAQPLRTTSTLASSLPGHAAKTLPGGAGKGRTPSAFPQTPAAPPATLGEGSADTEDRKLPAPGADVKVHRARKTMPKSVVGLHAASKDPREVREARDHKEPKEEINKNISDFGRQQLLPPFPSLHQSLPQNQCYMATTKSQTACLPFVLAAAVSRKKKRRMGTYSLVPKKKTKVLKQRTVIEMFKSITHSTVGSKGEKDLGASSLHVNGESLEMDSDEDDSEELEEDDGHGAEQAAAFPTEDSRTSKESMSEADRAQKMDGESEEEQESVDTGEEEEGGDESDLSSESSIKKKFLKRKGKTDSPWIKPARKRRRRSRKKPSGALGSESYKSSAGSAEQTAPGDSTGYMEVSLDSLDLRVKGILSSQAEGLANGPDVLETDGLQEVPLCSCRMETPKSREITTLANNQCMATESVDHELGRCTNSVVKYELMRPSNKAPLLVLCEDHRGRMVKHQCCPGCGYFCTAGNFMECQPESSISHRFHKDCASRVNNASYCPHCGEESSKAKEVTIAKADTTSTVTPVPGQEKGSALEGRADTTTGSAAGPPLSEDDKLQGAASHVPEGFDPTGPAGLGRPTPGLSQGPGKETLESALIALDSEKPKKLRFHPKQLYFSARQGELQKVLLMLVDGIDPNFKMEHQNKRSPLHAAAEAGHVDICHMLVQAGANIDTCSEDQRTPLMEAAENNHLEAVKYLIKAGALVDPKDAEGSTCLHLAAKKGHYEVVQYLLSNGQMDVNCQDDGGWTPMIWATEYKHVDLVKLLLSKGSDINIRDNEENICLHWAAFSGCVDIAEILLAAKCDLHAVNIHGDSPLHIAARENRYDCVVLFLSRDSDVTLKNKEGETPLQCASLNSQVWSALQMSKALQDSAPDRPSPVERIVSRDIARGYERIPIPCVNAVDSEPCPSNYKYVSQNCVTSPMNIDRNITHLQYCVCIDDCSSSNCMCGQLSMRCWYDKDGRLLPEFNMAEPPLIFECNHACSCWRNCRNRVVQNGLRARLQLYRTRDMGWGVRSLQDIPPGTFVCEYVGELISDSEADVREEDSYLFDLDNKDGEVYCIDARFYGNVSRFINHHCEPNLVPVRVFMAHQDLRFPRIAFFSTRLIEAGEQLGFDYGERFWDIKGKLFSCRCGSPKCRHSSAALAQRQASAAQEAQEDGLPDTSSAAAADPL
- assay method text: Triple SILAC pull-down after UNC0638 treatment of 293T cells, DMSO/UNC0638 ratio of protein captured by 3×MBT;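 also: mass spectrometry (Q-Exactive) SILAC quantitation, DMSO/UNC0638 ratio computed after subtracting 3×MBTD355N mutant pull-down background, only proteins with at least twofold 3×MBT over mutant signal considered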
- Type: cell-based
- Parameters: endogenous in cells; host or cells: HEK 293T
- condition set: SILAC ratio DMSO/UNC0638 of protein pulled down with 3xMBT; UNC0638 in heavy SILAC media
outcome measure: Relative to UNC0638 UNC Heavy (log base 2)
One number for each entry, in log base 2.

CBR1 (protein, UniProt P16152 2-277, looked up) Carbonyl reductase [NADPH] 1: SSGIHVALVTGGNKGIGLAIVRDLCRLFSGDVVLTARDVTRGQAAVQQLQAEGLSPRFHQLDIDDLQSIRALRDFLRKEYGGLDVLVNNAGIAFKVADPTPFHIQAEVTMKTNFFGTRDVCTELLPLIKPQGRVVNVSSIMSVRALKSCSPELQQKFRSETITEEELVGLMNKFVEDTKKGVHQKEGWPSSAYGVTKIGVTVLSRIHARKLSEQRKGDKILLNACCPGWVRTDMAGPKATKSPEEGAETPVYLALLPPDAEGPHGQFVSEKRVEQW yielded Relative to UNC0638 UNC Heavy of −0.09
